tested on: Plasmodium berghei; experiment: Screen against P. berghei liver stage (PbLuc), transformed with Luciferase, at 10uM; type: functional, HepG2; details: tested at 10 uM
The campaign covered roughly 69,000 compounds. About 8,600 (12%) showed an effect of 50% or more. This is one part of a sample in which strong results are shown more often than they occur.
ATTRIBUTE MEASURED: INHIBITION
Remember to follow the number with its unit.

Exercise: Which INHIBITION reading was recorded for the molecule O=C(C1CCCC1)N1CCC(c2ncc3c(n2)CCNC3)C1 (centres undefined) ?
Solution: -32.2%

Exercise: Which INHIBITION reading was recorded for the molecule `CCC(=O)N1CCC(c2ncc3c(n2)CCNC3)CC1` ?
Solution: 37.6%

Exercise: Which INHIBITION reading was recorded for the molecule `CN1CCc2nc(C3CCN(C(=O)CCC4CCCC4)CC3)ncc2C1` ?
Solution: 85.9%

Exercise: Which INHIBITION reading was recorded for the molecule CCC(=O)N1CCCC(c2ncc3c(n2)CCN(C)C3)C1 (centres undefined) ?
Solution: 10%

Exercise: Which INHIBITION reading was recorded for the molecule `CC(C)c1nn(C)c(Cl)c1CNCc1ccc2c(c1)OCCO2` ?
Solution: 1.5%

Exercise: Which INHIBITION reading was recorded for the molecule `Cc1nc(CN2CCCC23CCN(c2nc4ccccc4s2)CC3)co1` ?
Solution: 14.1%

Exercise: Which INHIBITION reading was recorded for the molecule CC(NCc1ccccc1Br)c1ccc2[nH]c(=O)[nH]c2c1 (centres undefined) ?
Solution: 51.6%

Exercise: Which INHIBITION reading was recorded for the molecule COc1ccccc1CNC(C)c1ccc2[nH]c(=O)[nH]c2c1 (centres undefined) ?
Solution: 7.12%

Exercise: Which INHIBITION reading was recorded for the molecule `O=C(CC1CCCCC1)N1CCC(c2ncc3c(n2)CCNC3)CC1` ?
Solution: 47.2%

Exercise: Which INHIBITION reading was recorded for the molecule `CCOCCCC(=O)NCCC(=O)N1CCN(c2ccccn2)CC1` ?
Solution: -39.5%

Exercise: Which INHIBITION reading was recorded for the molecule CS(=O)(=O)N1CCOCC2(CN(Cc3ccco3)CCO2)C1 (centres undefined) ?
Solution: 3.47%

Exercise: Which INHIBITION reading was recorded for the molecule CC(NCc1ccccc1Cl)c1ccc2[nH]c(=O)[nH]c2c1 (centres undefined) ?
Solution: 40.9%

Exercise: Which INHIBITION reading was recorded for the molecule Cn1ccnc1C(O)c1ccccc1N1CCN(Cc2cccs2)CC1 (centres undefined) ?
Solution: 15.605%

Exercise: Which INHIBITION reading was recorded for the molecule COCc1ncc(CN2CCC3(CCC(=O)N(CC(C)O)C3)CC2)cn1 (centres undefined) ?
Solution: 55.2%

Exercise: Which INHIBITION reading was recorded for the molecule `Cc1nc[nH]c1CN1CCCC12CCN(c1nc3ccccc3s1)CC2` ?
Solution: 76.6%

Exercise: Which INHIBITION reading was recorded for the molecule CCC(C)C(=O)N(C)Cc1cc(F)ccc1N1CCC(OC)CC1 (centres undefined) ?
Solution: 33.7%

Exercise: Which INHIBITION reading was recorded for the molecule `COCc1ncc(CN2CCC3(CCNCC3)CC2)cn1` ?
Solution: 18.5%

Exercise: Which INHIBITION reading was recorded for the molecule `O=C1COc2ccc(Br)cc2CN1CC1CC1` ?
Solution: 0.0996%

Exercise: Which INHIBITION reading was recorded for the molecule CN1CCc2nc(C3CCCN(C(=O)CC4CCCCC4)C3)ncc2C1 (centres undefined) ?
Solution: 27.8%

Exercise: Which INHIBITION reading was recorded for the molecule `Cn1cccc1C(=O)N1CCN(Cc2ccncc2)c2ncccc2C1` ?
Solution: -33%

Exercise: Which INHIBITION reading was recorded for the molecule Cn1ccnc1C(O)c1ccccc1N1CCN(Cc2ccsc2)CC1 (centres undefined) ?
Solution: 53.75%

Exercise: Which INHIBITION reading was recorded for the molecule `CCCC(=O)N1CCC(c2ncc3c(n2)CCNC3)CC1` ?
Solution: -28.6%

Exercise: Which INHIBITION reading was recorded for the molecule `Cc1csc(N2CCCN(C(=O)CCNc3ncccn3)CC2)n1` ?
Solution: 7.12%

Exercise: Which INHIBITION reading was recorded for the molecule `Cc1ccc(CN2CCC3(CC2)C(=O)N(CC(C)C)CCN3C)s1` ?
Solution: -31.9%

Reference for the values: ChEMBL document CHEMBL4513216
